Tested on: Setaria faberi
PROTOCOL: greenhouse pre-emergence herbicidal test
Assay type: in vivo
PROTOCOL_CONDITIONS: pre-emergence, 250 g/ha, scale 0 to 100
MEASURED_METRIC: herbicidal activity (%)
Kindly provide the numeric value in % only, without the unit symbol.

{"columns": ["MOLECULE", "UOM", "herbicidal activity"],
 "data": [
  ["COc1c(Br)ccc(F)c1Nc1nc(N)nc(C2(F)CCCC2)n1 [Example 25]", "%", 100],
  ["COc1c(Cl)cc(F)c(F)c1Nc1nc(N)nc(C2(F)CCCCC2)n1 [Example 10]", "%", 100],
  ["COc1c(Cl)cc(F)c(F)c1Nc1nc(N)nc(C(F)CC(C)C)n1 (racemic) [Example 12]", "%", 100],
  ["COCOc1c(Br)ccc(F)c1Nc1nc(N)nc(C(C)(C)F)n1 [Example 26]", "%", 100],
  ["COc1c(Br)cc(Br)c(F)c1Nc1nc(N)nc(C2(F)CCCCC2)n1 [Example 9]", "%", 95]
]}

Okay, now this molecule:
Lookup: Fill in the blank: the reported herbicidal activity of COc1c(Cl)cc(F)c(F)c1Nc1nc(N)nc(C2(F)CCCC2)n1 [Example 11] is ____.
Found: 100

====

Test system: Alopecurus myosuroides
PROTOCOL: greenhouse pre-emergence herbicidal test
Assay type: in vivo
PROTOCOL_CONDITIONS: pre-emergence, 62,5 g/ha, scale 0 to 100
MEASURED_METRIC: herbicidal activity (%)
Kindly provide the numeric value in % only, without the unit symbol.

Sample records with herbicidal activity:
{"columns": ["MOLECULE", "herbicidal activity / %"],
 "data": [
  ["C#CC(C)(F)c1nc(N)nc(Nc2c(F)c(F)cc(Br)c2OC)n1 (stereo not shown) [Example 115]", 98],
  ["CC=C(Cl)COc1c(Cl)cc(F)c(F)c1Nc1nc(N)nc(C(C)(C)F)n1 [Example 53]", 90],
  ["COc1c(Br)cc(F)c(F)c1Nc1nc(N)nc(C(C)(F)CBr)n1 (stereo not shown) [Example 123]", 100],
  ["CC(C)(F)c1nc(N)nc(Nc2c(F)ccc(Br)c2OC2CC2)n1 [Example 13]", 100],
  ["COc1c(Cl)c(F)c(F)c(F)c1Nc1nc(N)nc(C(C)(C)F)n1 [Example 148]", 100]
]}

Lookup: Fill in the blank: the reported herbicidal activity of COc1c(Br)c(F)c(F)c(F)c1Nc1nc(N)nc(C(C)(C)F)n1 [Example 164] is ____.
Found: 100

Lookup: Further, for C=CC(C)(F)c1nc(N)nc(Nc2c(F)c(F)c(F)c(Cl)c2OC)n1 (stereo not shown) [Example 173] ?
Found: 100

Lookup: Further, for COc1c(Cl)c(F)c(F)c(F)c1Nc1nc(N)nc(C(C)(C)OC)n1 [Example 174] ?
Found: 98

Lookup: Further, for CCC(C)(F)c1nc(N)nc(Nc2c(F)c(F)cc(Cl)c2OC)n1 (stereo not shown) [Example 116] ?
Found: 100

Lookup: Further, for COc1c(C)c(F)c(F)c(F)c1Nc1nc(N)nc(C(C)(C)F)n1 [Example 169] ?
Found: 100
